Listed here: items and their measured pEC50.
- assay target: human GLP-1R (Homo sapiens, UniProt P43220, G168S)
- Sequence (P43220 24-463 G168S limits assumed): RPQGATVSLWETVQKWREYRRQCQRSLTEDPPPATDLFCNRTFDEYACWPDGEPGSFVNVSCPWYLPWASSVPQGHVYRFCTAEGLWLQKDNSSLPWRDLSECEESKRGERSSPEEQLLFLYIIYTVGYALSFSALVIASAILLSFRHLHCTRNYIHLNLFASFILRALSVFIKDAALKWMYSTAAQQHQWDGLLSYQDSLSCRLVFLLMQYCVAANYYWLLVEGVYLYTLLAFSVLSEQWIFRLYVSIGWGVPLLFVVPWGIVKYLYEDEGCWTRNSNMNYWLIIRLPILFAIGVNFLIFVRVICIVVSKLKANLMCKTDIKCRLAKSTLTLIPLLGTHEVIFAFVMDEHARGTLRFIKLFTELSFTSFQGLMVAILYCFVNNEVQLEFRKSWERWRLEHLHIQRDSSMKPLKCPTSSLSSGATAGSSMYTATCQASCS
- assay comment: CHO GLP-1R Clone H6—Assay 1: HTRF cAMP cell-based functional agonist assay (high GLP-1R density)
- assay setup: read-out: Assay 1 EC50; CHO GLP-1R Clone H6, cAMP HTRF; geometric mean
pEC50: −log10 of the molar value.
property label: pEC50

> print(dat)
                                   compound  property.label  measured.value
1  Cn1c(CN2CCC(c3cccc(OCc4ccc(Cl)cc4F)n3)CC2)nc2cc(F)c(C(=O)O)cc21 [Example 2A-09]           pEC50            6.92
2  C[C@H]1CN(c2ccc(F)c(OCc3ccc(F)cc3F)n2)CCN1Cc1nc2ccc(C(=O)O)cc2n1C[C@H]1CCO1 [Example 10A-57]           pEC50            8.03
3  Cn1c(CN2CCC(c3cccc(OCc4ccc(OC(F)(F)F)cc4)n3)CC2)nc2ccc(C(=O)O)cc21 [Example 9A-09]           pEC50            6.06
4  COCCn1c(CN2CCN(c3ccc(F)c(OCc4ccc(Cl)cc4F)n3)C[C@@H]2C)nc2ccc(C(=O)O)cc21 [Example 1A-07]           pEC50            8.41

###

- assay target: human GLP-1R (Homo sapiens, UniProt P43220, G168S)
- assay comment: CHO GLP-1R Clone H6—Assay 1: HTRF cAMP cell-based functional agonist assay (high GLP-1R density)
- assay setup: read-out: Assay 1 Emax (%), CHO GLP-1R Clone H6; relative to saturating concentration of full agonist GLP-1 (1 μM); arithmetic mean
Response field label: string, one of YES (Emax strictly below 80%) or NO.

> print(dat)
                                    molecule  discrete.label
 1  Cn1c(CN2CCC(c3cccc(OCc4cccc(F)c4F)n3)CC2)nc2ccc(C(=O)O)cc21 [Example 9A-08]              NO
 2  Cc1ccccc1COc1cccc(C2CCN(Cc3nc4ccc(C(=O)O)cc4n3C)CC2)n1 [Example 9A-11]              NO
 3  Cn1cnnc1Cn1c(CN2CCC(c3cccc(OCc4ccc(Cl)cc4F)n3)CC2)nc2ccc(C(=O)O)cc21 [Example 11A-71]             YES
 4  Cn1c(CN2CCC(c3cccc(OCc4ccc(Cl)cc4)n3)CC2)nc2ccc(C(=O)O)cc21 [Example 9A-05]              NO
 5  N#Cc1ccc(COc2cccc(C3CCN(Cc4nc5ccc(C(=O)O)cc5n4Cc4ccon4)CC3)n2)c(F)c1 [Example 10A-65]              NO
 6  O=C(O)c1ccc2nc(CN3CCC(c4cccc(OCc5ccc(Cl)cc5F)n4)CC3)n(C[C@@H]3CCO3)c2c1 [Example 3A-01]              NO
 7  O=C(O)c1ccc2nc(CN3CCC(c4cccc(OCc5ccc(Cl)cc5F)n4)CC3)n(CC3CCCOC3)c2c1 (stereo not shown) [Example 11A-40]             YES
 8  Cn1c(CN2CCC(c3cccc(OCc4ccccc4OC(F)(F)F)n3)CC2)nc2ccc(C(=O)O)cc21 [Example 9A-10]             YES
 9  N#Cc1ccc(COc2cccc(C3CCN(Cc4nc5ccc(C(=O)O)cc5n4Cc4cnco4)CC3)n2)c(F)c1 [Example 10A-43]             YES
10  O=C(O)c1ccc2nc(CN3CCC(c4cccc(OCc5ccc(Cl)cc5F)n4)CC3)n(Cc3cnco3)c2c1 [Example 10A-01]             YES
11  CCn1cnnc1Cn1c(CN2CCN(c3cccc(OCc4ccc(Cl)cc4F)n3)C[C@@H]2C)nc2ccc(C(=O)O)cc21 [Example 10A-21]              NO
12  O=C(O)c1ccc2nc(CN3CCC(c4cccc(OCc5ccc(Cl)cc5F)n4)CC3)n(CCN3CCCC3=O)c2c1 [Example 10A-12]             YES
13  Cn1ccnc1Cn1c(CN2CCC(c3cccc(OCc4ccc(Cl)cc4F)n3)CC2)nc2ccc(C(=O)O)cc21 [Example 10A-38]             YES
14  CC(F)(F)Cn1c(CN2CCC(c3cccc(OCc4ccc(Cl)cc4F)n3)CC2)nc2ccc(C(=O)O)cc21 [Example 11A-27]             YES
15  COCCn1c(CN2CCN(c3cccc(OCc4ccc(Cl)cc4F)n3)[C@@H](C)C2)nc2ccc(C(=O)O)cc21 [Example 1A-13]             YES
16  O=C(O)c1ccc2nc(CN3CCC(c4cccc(OCc5ccc(Cl)cc5F)n4)CC3)n(CC3CCOCC3)c2c1 [Example 11A-49]             YES
17  CCn1cncc1Cn1c(CN2CCC(c3cccc(OCc4ccc(Cl)cc4F)n3)CC2)nc2ccc(C(=O)O)cc21 [Example 10A-02]              NO
18  C[C@H]1CN(c2ccc(F)c(OCc3ccc(F)cc3F)n2)CCN1Cc1nc2ccc(C(=O)O)cc2n1C[C@H]1CCO1 [Example 10A-57]             YES
19  [2H]C([2H])(Oc1cccc(C2CCN(Cc3nc4ccc(C(=O)O)cc4n3C[C@@H]3CCO3)CC2)n1)c1ccc(C#N)cc1F [Example 1A-09]              NO
20  COCCn1c(CN2CCN(c3cccc(OCc4ccc(Cl)cc4F)n3)C(C)(C)C2)nc2ccc(C(=O)O)cc21 [Example 1A-12]             YES

###

- assay target: human GLP-1R (Homo sapiens, UniProt P43220, G168S)
- assay comment: CHO GLP-1R Clone H6—Assay 1: HTRF cAMP cell-based functional agonist assay (high GLP-1R density)
- assay setup: CHO GLP-1R Clone H6; relative to saturating concentration of full agonist GLP-1 (1 μM); arithmetic mean

compound	Assay 1 Emax (%)
C[C@H]1CN(c2cccc(OCc3ccc(C#N)cc3F)n2)CCN1Cc1nc2ccc(C(=O)O)cc2n1CC1CCCO1 (single isomer, unassigned; diastereomer 1) [Example 14A-11]	65
COCCn1c(CN2CCN(c3cccc(OCc4ccc(Cl)cc4F)n3)C[C@@H]2CO)nc2ccc(C(=O)O)cc21 [Example 12A-09]	79
C[C@H]1CN(c2cccc(OCc3ccc(C#N)cc3)n2)CCN1Cc1nc2ccc(C(=O)O)cc2n1CC1CCCO1 (single isomer, unassigned; diastereomer 1) [Example 14A-07]	63
N#Cc1ccc(COc2nc(C3CCN(Cc4nc5ccc(C(=O)O)cc5n4CC4CCOC4)CC3)ccc2F)cc1 (single isomer, unassigned; enantiomer 1) [Example 14A-05]	82

###

Listed here: items and their measured EC50.
- assay target: human GLP-1R (Homo sapiens (Human), UniProt P43220, L260F)
- Sequence (P43220 24-463 L260F): as the sequence (P43220 24-463 G168S limits assumed) above, with S145G, L237F counted along it
- assay comment: CHO GLP-1R Clone C6—Assay 2: HTRF cAMP cell-based functional agonist assay (low GLP-1R density)
- assay setup: CHO GLP-1R Clone C6, cAMP HTRF; geometric mean
Structures can show the parent of a compound that is named as a salt.
property label: EC50 (nM)

molecule	measured value
Cn1c(CN2CCC(c3cccc(OCc4ccc(Cl)cc4F)n3)CC2)nc2ccc(C(=O)O)cc21 [Example 1A-01, hydrochloride]	910
CO[C@@H]1CCC[C@H]1n1c(CN2CCC(c3cccc(OCc4ccc(Cl)cc4F)n3)CC2)nc2ccc(C(=O)O)cc21 [Example 1A-27]	1400
O=C(O)c1ccc2nc(CN3CCC(c4cccc(OCc5ccc(Cl)cc5F)n4)CC3)n(C[C@H]3CCCO3)c2c1 [Example 11A-68]	2000
COCCn1c(CN2CCC(c3cccc(OCc4ccc(C#N)cc4)n3)CC2)nc2ccc(C(=O)O)c(F)c21 [Example 2A-15]	280
COCCn1c(CN2CCC(c3cccc(OCc4ccc(Cl)cc4F)n3)CC2)nc2ncc(C(=O)O)cc21 [Example 2A-02, hydrochloride]	110
O=C(O)c1ccc2nc(CN3CCC(c4cccc(OCc5ccc(Cl)cc5F)n4)CC3)n(Cc3ncco3)c2c1 [Example 10A-42]	29
Cn1cncc1Cn1c(CN2CCN(c3cccc(OCc4ccc(C#N)cc4F)n3)CC2)nc2ccc(C(=O)O)cc21 [Example 10A-37]	23
C[C@H]1CN(c2cccc(OCc3ccc(C#N)cc3)n2)CCN1Cc1nc2ccc(C(=O)O)cc2n1CC1CCCO1 (single isomer, unassigned; diastereomer 2) [Example 14A-08]	380
CCn1nncc1Cn1c(CN2CCN(c3cccc(OCc4ccc(C#N)cc4F)n3)CC2)nc2ccc(C(=O)O)cc21 [Example 10A-62]	28
Cn1nncc1Cn1c(CN2CCC(c3cccc(OCc4ccc(Cl)cc4F)n3)CC2)nc2ccc(C(=O)O)cc21 [Example 11A-72]	41
COCCn1c(CN2CC[C@@H](c3cccc(OCc4ccc(Cl)cc4F)n3)[C@H](C)C2)nc2ccc(C(=O)O)cc21 (racemic) [Example 1A-26]	1800
O=C(O)c1ccc2nc(CN3CCC(c4cccc(OCc5ccc(Cl)cc5F)n4)CC3)n(CC3CCC3)c2c1 [Example 11A-16]	410
C[C@H]1CN(c2cccc(OCc3ccc(C#N)cc3F)n2)CCN1Cc1nc2ccc(C(=O)O)cc2n1Cc1cnnn1C [Example 10A-23]	760
